Reported inhibition by item:
# tested-system: Mothers against decapentaplegic homolog 3 (Homo sapiens) (UniProt P84022)
# Sequence (P84022 whole entry, looked up): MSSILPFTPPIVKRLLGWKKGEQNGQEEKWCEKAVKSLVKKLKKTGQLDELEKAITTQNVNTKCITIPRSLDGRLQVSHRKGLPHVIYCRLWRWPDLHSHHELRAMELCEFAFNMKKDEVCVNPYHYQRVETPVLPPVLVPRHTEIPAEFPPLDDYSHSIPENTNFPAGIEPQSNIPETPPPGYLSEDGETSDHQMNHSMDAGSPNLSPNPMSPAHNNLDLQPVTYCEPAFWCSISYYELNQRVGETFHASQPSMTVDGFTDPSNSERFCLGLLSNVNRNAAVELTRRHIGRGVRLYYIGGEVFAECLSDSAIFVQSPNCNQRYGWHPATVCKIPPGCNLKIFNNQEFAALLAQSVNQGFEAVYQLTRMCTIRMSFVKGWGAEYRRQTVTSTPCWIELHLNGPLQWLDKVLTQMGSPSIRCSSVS
# protocol-text: blockers of Smad3 binding to FoxH1 – biochemical, TR-FRET, primary screen (AID 630);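 also: 0% = Smad3 plus labelled peptide maximal FRET and 100% = peptide-only background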
# experimental-conditions: TR-FRET Smad3/Dy647-FoxH1 peptide binding, europium anti-His; at 25 µM; active compounds read high
In all, about 88,000 compounds went through this assay and about 260 (0.3%) were called active. Shown is part of a subset that was picked to be rich in actives.
Enter your answer as a number in %; do not include the unit.

Answered examples (4):
O=C(O)[C@@H]1CCc2ccc3ccccc3c2[C@H]1c1cccc2ccccc12: -9.06
CC(C)CNC(=S)NNC(=O)c1nn(C)cc1Cl: 3.44
O=C(c1ccc(O)cc1)c1ccc(C(=O)O)c(C(=O)O)c1: -7.32
Cc1oc(-c2ccccc2Cl)[n+]([O-])c1C: 2.52

Form field: reported inhibition of O=C(O)c1ccc(C(=O)O)c2c(C(=O)O)ccc(C(=O)O)c12
-1.5

----------
# tested-system: Mothers against decapentaplegic homolog 3 (Homo sapiens)
# protocol-text: blockers of Smad3 binding to FoxH1 – biochemical, TR-FRET, primary screen (AID 630);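 also: 0% = Smad3 plus labelled peptide maximal FRET and 100% = peptide-only background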
# experimental-conditions: TR-FRET Smad3/Dy647-FoxH1 peptide binding, europium anti-His; at 25 µM
Out of some 88,000 compounds screened, about 260 (0.3%) were called active.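 How the source made its calls: active means compounds that reduce the energy-transfer binding signal between the protein and its labelled peptide by more than half; inactive means the rest.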 What follows is part of a selection rich in actives, with near analogues and random picks from the rest.
Hello, when you answer, please use one of the following outcomes: true (1) (active), false (0) (inactive)

Study these solved cases before continuing.
CCc1cccc(C)c1N(C(=O)Cn1c(CO)nc2ccccc21)C(C)COC (stereo not given): false (0)
COc1ccccc1CNS(=O)(=O)c1ccc(C)cc1: false (0)
COc1ccc(Nc2cc(=O)oc3ccccc23)cc1: false (0)

What did this assay record as the result for O=C(c1cc2sccc2n1Cc1ccc(F)cc1)N1CCc2ccccc21 ?
false (0)

For COc1ccc(CN(CC(=O)NC2CCCC2)C(=O)CCC(=O)Nc2cc(C)on2)cc1 , which call appears in the assay record?
false (0)

Look up the recorded call for Cc1cc(C)nc(N2CCN(c3ncnc4c3oc3ccccc34)CC2)n1 in this test.
false (0)

// return assay outcome for CCOc1cc2[nH]c(=S)n(Cc3ccc(C(=O)NCCOC)cc3)c(=O)c2cc1OCC
false (0)

// return assay outcome for CC(C)c1nc2oc3c(N4CCN(C)CC4)ncnc3c2c2c1CCC2
true (1)

Check the results log: what was the call for O=C(O)/C=C/C(=O)Nc1ccc2c(c1)-c1ccccc1C2 ?
false (0)

What call does the record list for O=C(CSCc1ccccc1)N1CCc2ccccc21 ?
false (0)

Status in this test for CCN1CCN(c2ncnc3c2oc2nc(C)c4c(c23)CC(C)(C)OC4)CC1 ?
false (0)

Would you mind telling me which call this test gave C=C(C)CNC(=S)/N=c1\scc(C)n1CC ?
true (1)

Short answer needed: outcome of this test for CC(=O)Nc1ccc(OCC(O)CN2CCN(c3ccccc3Cl)CC2)cc1 (stereo not given) ?
false (0)

Which outcome did this test record for the compound N#CC1=C(SCc2ccc(C#N)cc2)N=C(N)C(c2nc(-c3ccccc3)cs2)C12CCCCC2 (stereo not given) ?
false (0)

For Cn1c(Cn2nnc3ccccc32)nnc1SCC(=O)c1ccccc1F , what call appears in the results of this test?
false (0)

----------
# tested-system: Mothers against decapentaplegic homolog 3 (Homo sapiens)
# protocol-text: blockers of Smad3 binding to FoxH1 – biochemical, TR-FRET, primary screen (AID 630);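 also: 0% = Smad3 plus labelled peptide maximal FRET and 100% = peptide-only background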
# experimental-conditions: TR-FRET Smad3/Dy647-FoxH1 peptide binding, europium anti-His; at 25 µM; active compounds read high
Hit rate of the full screen: of about 88,000 compounds, about 260 (0.3%) were called active. This is one part of a sample in which actives are shown more often than they occur.
inhibition values by entry
Output spec: scalar in %, unitless text.

Given O=C(Cc1ccc(-n2c(=O)c3sccc3n(Cc3ccc(F)cc3)c2=O)cc1)NCc1ccco1 , state its recorded inhibition.
-21.8

----------
# tested-system: Mothers against decapentaplegic homolog 3 (Homo sapiens)
# protocol-text: blockers of Smad3 binding to FoxH1 – biochemical, TR-FRET, primary screen (AID 630);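 also: 0% = Smad3 plus labelled peptide maximal FRET and 100% = peptide-only background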
# experimental-conditions: TR-FRET Smad3/Dy647-FoxH1 peptide binding, europium anti-His; at 25 µM; active compounds read high
About 260 (0.3%) of roughly 88,000 compounds were called active. The sample as a whole holds a higher share of actives than the screen did.
parameter-measured: inhibition (%)
The figure you give is taken to be in %; do not add the unit.

Please review the following examples before continuing.
OC[C@@H]1O[C@H](n2cnc3c(SCc4ccccc4)ncnc32)[C@H](O)[C@H]1O: 4.63
C=CCN(N=Nc1cccc([N+](=O)[O-])c1)c1cccc([N+](=O)[O-])c1: 5.93

As a next step, examine the compound that follows.
Request body: readout inhibition, system Mothers against decapentaplegic homolog 3 (Homo sapiens), query O=C(Nc1ccc2c(c1)OCCO2)C(c1ccc(F)cc1)N1CCCCC1 (stereo not drawn) . Return the value.
-0.28

----------
# tested-system: Mothers against decapentaplegic homolog 3 (Homo sapiens) (UniProt P84022)
# protocol-text: blockers of Smad3 binding to FoxH1 – biochemical, TR-FRET, primary screen (AID 630);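 also: 0% = Smad3 plus labelled peptide maximal FRET and 100% = peptide-only background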
# experimental-conditions: TR-FRET Smad3/Dy647-FoxH1 peptide binding, europium anti-His; at 25 µM; active compounds read high
About 260 (0.3%) of roughly 88,000 compounds were called active. The full list was thinned out, with actives kept by preference.
parameter-measured: inhibition (%)
Reply with just the number (in %).

Example cases with answers are listed next.
Cc1cc(C)cc(N(CC(=O)N2CC=C(c3ccccc3)CC2)S(=O)(=O)c2c(C)noc2C)c1: -9.86
Clc1ccc(C2=CSC3=Nc4cccc5cccc(c45)N23)cc1: 19.6
OCCNc1nc2ccccc2[nH]1: 3.77

// query inhibition value for entry Oc1c(Br)cc(CN(Cc2cc(Br)c(O)c(Br)c2)C2CCCCC2)cc1Br
98.7

Give the measured inhibition of O=C(COc1ccccc1)Nc1nonc1NC(=O)COc1ccccc1 .
8.67

----------
# tested-system: Mothers against decapentaplegic homolog 3 (Homo sapiens) (UniProt P84022)
# protocol-text: blockers of Smad3 binding to FoxH1 – biochemical, TR-FRET, primary screen (AID 630);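 also: 0% = Smad3 plus labelled peptide maximal FRET and 100% = peptide-only background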
# experimental-conditions: TR-FRET Smad3/Dy647-FoxH1 peptide binding, europium anti-His; at 25 µM; active compounds read high
Hit rate of the full screen: of about 88,000 compounds, about 260 (0.3%) were called active. Only a selection was taken, and actives are over-represented in it overall.
parameter-measured: inhibition (%)
A number alone suffices; assume %.

Field: example entries. Status: answers known.
Cc1cccc(NC(=O)/C(=C\c2ccco2)NC(=O)c2ccccc2)c1: -5.56
N#CC1=C(N)N(c2ccccc2)C2=C(C(=O)CCC2)C1c1ccccc1 (configuration not stated): -6.32
COC(=O)c1ccc(Cc2ccccc2)o1: 6.44
CC(C)Oc1ccc(Oc2ccc(C(F)(F)F)cn2)cc1: 0.6
Cc1ccc(S(=O)(=O)NCC(C)NS(C)(=O)=O)cc1 (configuration not stated): -1.07

Query the reported inhibition for Mothers against decapentaplegic homolog 3 (Homo sapiens) (UniProt P84022); item: CCOc1c(Cl)cc(/C=N/O)cc1OC
5.66

Give the reported inhibition for c1ccc(C(c2ccccc2)N2CCN(Cc3nnnn3C3CCCCC3)CC2)cc1 (system: Mothers against decapentaplegic homolog 3 (Homo sapiens) (UniProt P84022)).
-7.75

Entry source: PubChem BioAssay AID630
